# Experimental Target: UniProt P49841
# Sequence (P49841 whole entry): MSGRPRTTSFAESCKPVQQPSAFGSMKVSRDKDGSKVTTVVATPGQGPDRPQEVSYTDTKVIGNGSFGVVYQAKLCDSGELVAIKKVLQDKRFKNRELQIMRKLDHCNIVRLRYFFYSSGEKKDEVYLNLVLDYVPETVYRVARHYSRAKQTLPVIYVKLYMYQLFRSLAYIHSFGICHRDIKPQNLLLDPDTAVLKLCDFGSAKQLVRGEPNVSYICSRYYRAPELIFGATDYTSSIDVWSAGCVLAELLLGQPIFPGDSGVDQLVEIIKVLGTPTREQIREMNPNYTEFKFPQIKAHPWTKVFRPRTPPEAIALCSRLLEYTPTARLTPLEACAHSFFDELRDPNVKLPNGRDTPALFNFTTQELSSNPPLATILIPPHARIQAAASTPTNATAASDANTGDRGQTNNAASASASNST
# Assay Method Text: GSK-3β human kinase assay (SPA)
# Assay type: biochemical
# Test Settings: read-out: GSK3B pIC50 (converted)
# IC50 listing for each entry below
Measure Name: IC50

- COc1ccc2cc1CN(C)CCCCC(=O)NCCN(C)c1ncnc3c1/C(=C/N2)C(=O)N3 [Compound 51]: > 10 µM
- CC(C)N1CCCCCC(=O)N2CCN(CC2)c2ncnc3c2/C(=C/Nc2ccc(F)c(c2)C1)C(=O)N3 [Compound 28]: > 10 µM
- CN1CCCNc2ncnc3c2/C(=C/Nc2cc(cc(C(F)(F)F)c2)OCCCC1=O)C(=O)N3 [Compound 113]: > 10 µM

###

# IC50 listing for each entry below
# Experimental Target: AuroraB (h) (Homo sapiens)
# Sequence (Q96GD4 whole entry): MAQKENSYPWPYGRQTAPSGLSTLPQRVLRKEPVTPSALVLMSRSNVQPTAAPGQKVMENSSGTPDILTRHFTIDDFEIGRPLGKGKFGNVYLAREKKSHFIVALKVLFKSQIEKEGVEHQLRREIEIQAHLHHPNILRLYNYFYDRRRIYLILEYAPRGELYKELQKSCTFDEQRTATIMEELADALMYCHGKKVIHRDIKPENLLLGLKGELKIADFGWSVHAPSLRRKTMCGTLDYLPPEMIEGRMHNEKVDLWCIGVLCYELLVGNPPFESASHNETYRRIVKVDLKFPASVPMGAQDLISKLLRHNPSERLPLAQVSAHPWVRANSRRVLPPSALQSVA
# Assay Method Text: Aurora-B human kinase assay (SPA)
# Format: biochemical
# Test Settings: read-out: AuroraB pIC50 (converted)
# Procedure: The in vitro inhibition of a panel of kinases was assessed using either the scintillation proximity assay (SPA) as described by Cook, N. D. et al., Advances in Experimental Medicine and Biology (1991), 36; p. 525-528; or the Fluorescence Resonance Energy Transfer (FRET) technology as described by Rodems, S. M. et al., Assay Drug Develop. Technol. (2002), 1; p. 9-19. […]
Measure Name: IC50

• COc1nc2c3c(n1)NC(=O)/C3=C\Nc1ccc(Cl)c(c1)OCCCCC(=O)N(C)CCCN2 = > 10 µM
• CN1CCNc2ncnc3c2/C(=C/Nc2cccc(c2)OCC(=O)N[C@H](Cc2ccccc2)C1)C(=O)N3 = 3.55 µM
• O=C1Nc2ncnc3c2/C1=C/Nc1ccc(c(F)c1)OCCCCCC(=O)N1CCN3CC1 = > 10 µM
• CN1CCCNc2ncnc3c2/C(=C/Nc2ccc(NC(=O)c4ccccc4)c(c2)OCCCC1=O)C(=O)N3 = 0.617 µM
• CN1CCN(c2ccc3cc2OCCCCCC(=O)N(C)CCNc2ncnc4c2/C(=C/N3)C(=O)N4)CC1 = > 10 µM
• COc1ccc2cc1OCCCCCCC(=O)N(C)CCCN(C)c1ncnc3c1/C(=C/N2)C(=O)N3 = > 10 µM
• CN1CCNc2ncnc3c2/C(=C/Nc2cccc(c2)OCCCN(C)[C@H](CO)C1=O)C(=O)N3 = > 10 µM
• CN1CCCCCC(=O)N(C)CCNc2ncnc3c2/C(=C/Nc2ccc(N4CCOCC4)c(c2)C1)C(=O)N3 = > 10 µM
• CN1CCC(=O)NCC#Cc2cccc3c2/C(=C/Nc2cccc(c2)S(=O)(=O)N(C)CC1=O)C(=O)N3 = > 10 µM
• O=C1Nc2ncnc3c2/C1=C/Nc1cccc(c1)OCCCN1C[C@H](O)C[C@@H]1C(=O)N1CCN3CC1 = > 10 µM
• COc1cc2cc(c1OC)CN(C)CC(=O)N(C)CCN(C)CCNc1ncnc3c1/C(=C/N2)C(=O)N3 = > 10 µM
• CN1CCCCCCC(=O)NCCN(C)c2ncnc3c2/C(=C/Nc2cccc(c2)C1)C(=O)N3 = > 10 µM
• CN1CCNc2ncnc3c2/C(=C/Nc2cc(cc(C(F)(F)F)c2)OCCCCC1=O)C(=O)N3 = > 10 µM
• COc1ccc2cc1OCC(=O)NCCN1CCN(CC1)c1ncnc3c1/C(=C/N2)C(=O)N3 = 1.86 µM
